Entries and their pIC50
- Measurement target: Human plasma kallikrein (Homo sapiens (Human), UniProt P03952)
- Sequence (P03952 391-638): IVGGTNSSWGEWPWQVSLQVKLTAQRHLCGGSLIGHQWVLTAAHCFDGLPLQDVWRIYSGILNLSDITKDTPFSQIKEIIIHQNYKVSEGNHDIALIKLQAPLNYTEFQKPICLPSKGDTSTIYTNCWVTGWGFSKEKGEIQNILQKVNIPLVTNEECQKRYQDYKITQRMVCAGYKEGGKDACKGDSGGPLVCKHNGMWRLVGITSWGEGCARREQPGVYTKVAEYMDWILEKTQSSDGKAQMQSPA
- Sequence (P03952 20-390 partner): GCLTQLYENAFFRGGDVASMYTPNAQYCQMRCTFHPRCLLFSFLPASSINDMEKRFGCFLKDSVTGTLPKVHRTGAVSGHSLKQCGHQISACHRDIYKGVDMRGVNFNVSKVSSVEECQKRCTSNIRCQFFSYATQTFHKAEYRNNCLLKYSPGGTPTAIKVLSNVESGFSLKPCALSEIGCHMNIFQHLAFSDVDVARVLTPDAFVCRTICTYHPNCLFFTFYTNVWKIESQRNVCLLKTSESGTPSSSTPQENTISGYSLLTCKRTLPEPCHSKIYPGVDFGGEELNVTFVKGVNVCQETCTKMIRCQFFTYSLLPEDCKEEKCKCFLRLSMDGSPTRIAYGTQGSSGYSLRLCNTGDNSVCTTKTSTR
- Method description: Determination of the IC50 for plasma kallikrein
- Type: biochemical
- Measurement parameters: fluorogenic substrate H-DPro-Phe-Arg-AFC, 37° C., read-out: IC50 (human PKal)
By convention, pIC50 is the negative base-10 log of a molar concentration.

Example cases with answers are listed next.
[[record]]
mol = "CN(CC(=O)O)[C@H](CC1CCCCC1)C(=O)N[C@@H](Cc1ccccc1)C(=O)NCc1ccc(CN)cc1"
measurement_target = "Human plasma kallikrein (Homo sapiens (Human), UniProt P03952)"
assay_value = 6.52

[[record]]
mol = "CCOc1ccc(C[C@@H](NC(=O)CC)C(=O)N[C@@H](Cc2ccccc2)C(=O)N(C)Cc2ccc(CN)cc2)cc1"
measurement_target = "Human plasma kallikrein (Homo sapiens (Human), UniProt P03952)"
assay_value = 6.35

[[record]]
mol = "CCOc1ccc(C[C@@H](N)C(=O)N[C@@H](Cc2ccc(Cl)c(Cl)c2)C(=O)NCc2ccc(CN)cc2)cc1"
measurement_target = "Human plasma kallikrein (Homo sapiens (Human), UniProt P03952)"
assay_value = 6.40


--- query ---
# CN(Cc1ccc(CN)cc1)C(=O)[C@H](Cc1ccccc1)NC(=O)[C@@H](CC1CCCCC1)NCC(=O)O with Human plasma kallikrein (Homo sapiens (Human), UniProt P03952): pIC50 is 5.09

----------
- Method description: Determination of thermodynamic solubility in phosphate buffer
- Format: physicochemical
- Measurement parameters: pH 7.4, aqueous buffer, thermodynamic from solid, ammonium phosphate buffer pH7.4, 290 mOsm, 37° C., nominal 1 mg/mL, read-out: Solubility in PO4 buffer
If the reported solubility at 1 h equals or exceeds 2 µg/mL, assign true. If not, assign false.

Here's what some known entries look like.
[[record]]
mol = "CCOc1ccc(C[C@@H](NC(=O)c2ccno2)C(=O)N[C@@H](Cc2ccccc2)C(=O)NCc2ccc(CN)cc2)cc1"
qualitative_label = "true"

[[record]]
mol = "CCOc1ccc(C[C@@H](NC(=O)c2ccc(F)cc2)C(=O)N[C@@H](Cc2ccccc2)C(=O)NCc2ccc(CN)cc2)cc1"
qualitative_label = "true"

[[record]]
mol = "CCOc1ccc(C[C@@H](NC(=O)c2ccc(C(F)(F)F)cc2)C(=O)N[C@@H](Cc2ccccc2)C(=O)NCc2ccc(CN)cc2)cc1"
qualitative_label = "false"


Q: Record CCOc1ccc(C[C@@H](NC(=O)c2ccc(OC)cc2)C(=O)N[C@@H](Cc2cccnc2)C(=O)NCc2ccc(CN)cc2)cc1 ; criterion: solubility at 1 h no lower than 2 µg/mL. Met?
Result: true

Q: Assess whether reported solubility at 1 h for CCOc1ccc(C[C@@H](NC(=O)c2ccccc2)C(=O)N[C@@H](Cc2ccccn2)C(=O)NCc2ccc(CN)cc2)cc1 sits at 2 µg/mL or higher.
Result: true

Q: Item CCOc1ccc(C[C@@H](NC(=O)c2ccc(F)c(F)c2)C(=O)N[C@@H](Cc2ccccc2)C(=O)NCc2ccc(CN)cc2)cc1 with solubility at 1 h of 2 µg/mL or above?
Result: true

Q: Is solubility at 1 h for CCOc1ccc(C[C@@H](NC(=O)c2ccccc2)C(=O)N[C@@H](Cc2ccccc2)C(=O)NCc2ccc(CN)cc2)cc1 at or above 2 µg/mL?
Result: true

Q: Is solubility at 1 h at least 2 µg/mL? Consider CCOc1ccc(C[C@@H](NC(=O)c2cccc3ccccc23)C(=O)N[C@@H](Cc2ccccc2)C(=O)NCc2ccc(CN)cc2)cc1
Result: false

Q: I'd appreciate it if you could say whether CCOc1ccc(C[C@@H](NC(=O)c2ccccc2)C(=O)N[C@@H](Cc2ccc(F)c(F)c2)C(=O)NCc2ccc(CN)cc2)cc1 has solubility at 1 h at least equal to 2 µg/mL.
Result: false

----------
- Measurement target: Human KLK1 (Homo sapiens (Human), UniProt P06870)
- Sequence (P06870 25-262): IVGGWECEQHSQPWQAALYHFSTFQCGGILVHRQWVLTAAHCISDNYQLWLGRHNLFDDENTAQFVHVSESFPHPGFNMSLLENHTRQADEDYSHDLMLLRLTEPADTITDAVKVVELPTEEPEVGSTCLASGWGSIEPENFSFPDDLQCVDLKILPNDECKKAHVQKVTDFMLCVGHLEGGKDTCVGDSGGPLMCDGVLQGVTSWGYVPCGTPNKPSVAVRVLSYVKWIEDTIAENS
- Method description: Determination of the IC50 for KLK1
- Assay type: biochemical
- Measurement parameters: Human KLK1, 37° C., substrate H-DVal-Leu-Arg-AFC; Table 13
compounds and their reported IC50

Here is how some compounds turned out for IC50.
[[record]]
mol = "CCOc1ccc(C[C@@H](NC(=O)c2ccccc2)C(=O)N[C@@H](Cc2cscn2)C(=O)NCc2ccc(CN)cc2)cc1"
quantity_name = "IC50"
assay_value = "> 10 µM"

[[record]]
mol = "CCOc1ccc(C[C@@H](NC(=O)c2cc(F)nc(F)c2F)C(=O)N[C@@H](Cc2ccccc2)C(=O)NCc2ccc(CN)cc2)cc1"
quantity_name = "IC50"
assay_value = "> 10 µM"

[[record]]
mol = "CCOc1ccc(C[C@@H](NC(=O)c2sccc2N)C(=O)N[C@@H](Cc2ccccc2)C(=O)NCc2ccc(CN)cc2)cc1"
quantity_name = "IC50"
assay_value = "7 µM"


Now turn to the next compound.
Reported IC50 of NCc1ccc(CNC(=O)[C@H](Cc2ccccc2)NC(=O)[C@@H](Cc2ccc(O)cc2)NC(=O)c2ccccc2)cc1 : > 10 µM

----------
- Measurement target: Human KLK1 (Homo sapiens (Human))
- Method description: Determination of the IC50 for KLK1
- Format: biochemical
- Measurement parameters: Human KLK1, 37° C., substrate H-DVal-Leu-Arg-AFC; Table 12
Quantity name: pIC50
Notebook: values listed as pIC50 are -log10 of the concentration (mol/L).

Examples from the recorded data:
[[record]]
mol = "CCOc1ccc(C[C@@H](NS(=O)(=O)c2ccccc2)C(=O)N[C@@H](Cc2ccccc2)C(=O)NCc2ccc(CN)cc2)cc1"
measurement_target = "Human KLK1 (Homo sapiens (Human))"
quantity_name = "pIC50"
assay_value = 5.66

[[record]]
mol = "NCc1ccc(CNC(=O)[C@H](Cc2ccccc2)NC(=O)[C@@H](CC2CCCCC2)NCC(N)=O)cc1"
measurement_target = "Human KLK1 (Homo sapiens (Human))"
quantity_name = "pIC50"
assay_value = 5.30


Consider the record given below.
Here CCC(=O)N[C@H](CC1CCCCC1)C(=O)N[C@@H](Cc1ccc(Cl)c(Cl)c1)C(=O)NCc1ccc(CN)cc1 was tested on Human KLK1 (Homo sapiens (Human)), and its pIC50 came to 5.00

----------
Below, each entry is listed with its recorded IC50.
- Measurement target: Human plasma kallikrein (Homo sapiens (Human))
- Method description: Determination of the IC50 for plasma kallikrein
- Assay type: biochemical
- Measurement parameters: 37° C., substrate H-DPro-Phe-Arg-AFC, read-out: IC50 (human PKal)

Here are 5 compounds together with their reported answers.
[[record]]
compound = "CCOc1ccc(C[C@@H](NC(=O)c2sccc2C)C(=O)N[C@@H](Cc2cccnc2)C(=O)NCc2ccc(CN)cc2)cc1"
quantity_name = "IC50"
assay_value = "10 nM"

[[record]]
compound = "CCOc1ccc(C[C@@H](NC(=O)CCc2ccccc2)C(=O)N[C@@H](Cc2ccccc2)C(=O)NCc2ccc(CN)cc2)cc1"
quantity_name = "IC50"
assay_value = "423 nM"

[[record]]
compound = "CCOc1ccc(C[C@@H](NC(=O)c2ccccc2)C(=O)N[C@@H](Cc2cccnc2)C(=O)NCc2ccc(CN)cc2)cc1"
quantity_name = "IC50"
assay_value = "25 nM"

[[record]]
compound = "CCOc1ccc(C[C@@H](NC(=O)c2[nH]ccc2C)C(=O)N[C@@H](Cc2csc3ccccc23)C(=O)NCc2ccc(CN)cc2)cc1"
quantity_name = "IC50"
assay_value = "14 nM"

[[record]]
compound = "CCOc1ccc(C[C@@H](NC(=O)c2ccncc2)C(=O)N[C@@H](Cc2ccc(Cl)c(Cl)c2)C(=O)NCc2ccc(CN)cc2)cc1"
quantity_name = "IC50"
assay_value = "123 nM"


Recorded IC50 for CCOc1ccc(C[C@@H](NC(=O)C2CCCCC2)C(=O)N[C@@H](Cc2ccccc2)C(=O)NCc2ccc(CN)cc2)cc1 on Human plasma kallikrein (Homo sapiens (Human)) was 270 nM

----------
- Measurement target: Human plasma kallikrein (Homo sapiens (Human), UniProt P03952)
- Method description: Determination of the IC50 for plasma kallikrein
- Type: biochemical
- Measurement parameters: 37° C., substrate H-DPro-Phe-Arg-AFC, read-out: IC50 (human PKal)
Quantity name: log10 of IC50 (log10 of the value in µM)
Plainly stated, the numbers are log10 of IC50 given in µM.

[[record]]
compound = "CCOc1ccc(C[C@@H](NC(=O)c2sccc2N)C(=O)N[C@@H](Cc2cscn2)C(=O)NCc2ccc(CN)cc2)cc1 [Example 183]"
measurement_target = "Human plasma kallikrein (Homo sapiens (Human), UniProt P03952)"
quantity_name = "log10 of IC50"
assay_value = -1.80

[[record]]
compound = "CCOc1ccc(C[C@@H](NC(=O)c2ccncc2)C(=O)N[C@@H](Cc2ccccc2)C(=O)NCc2ccc(CN)c(F)c2)cc1 [Example 167]"
measurement_target = "Human plasma kallikrein (Homo sapiens (Human), UniProt P03952)"
quantity_name = "log10 of IC50"
assay_value = -1.10

[[record]]
compound = "CCOc1ccc(C[C@@H](NC(=O)c2ccccc2)C(=O)N[C@@H](Cc2ccccc2F)C(=O)NCc2ccc(CN)cc2)cc1 [Example 180]"
measurement_target = "Human plasma kallikrein (Homo sapiens (Human), UniProt P03952)"
quantity_name = "log10 of IC50"
assay_value = -1.14

[[record]]
compound = "CCOc1ccc(C[C@@H](NC(=O)CC)C(=O)N[C@@H](Cc2ccccn2)C(=O)NCc2ccc(CN)cc2)cc1 [Example 166]"
measurement_target = "Human plasma kallikrein (Homo sapiens (Human), UniProt P03952)"
quantity_name = "log10 of IC50"
assay_value = -0.58

[[record]]
compound = "Cc1ccc(C[C@@H](NC(=O)c2ccccc2)C(=O)N[C@@H](Cc2ccccc2)C(=O)NCc2ccc(CN)cc2)cc1 [Example 135]"
measurement_target = "Human plasma kallikrein (Homo sapiens (Human), UniProt P03952)"
quantity_name = "log10 of IC50"
assay_value = -0.37

[[record]]
compound = "CCOc1ccc(C[C@@H](NC(=O)c2cccs2)C(=O)N[C@@H](Cc2cccnc2)C(=O)NCc2ccc(CN)cc2)cc1 [Example 162]"
measurement_target = "Human plasma kallikrein (Homo sapiens (Human), UniProt P03952)"
quantity_name = "log10 of IC50"
assay_value = -2.00

[[record]]
compound = "CCOc1ccc(C[C@@H](NC(=O)c2ccc(C)cc2)C(=O)N[C@@H](Cc2cccnc2)C(=O)NCc2ccc(CN)cc2)cc1 [Example 199]"
measurement_target = "Human plasma kallikrein (Homo sapiens (Human), UniProt P03952)"
quantity_name = "log10 of IC50"
assay_value = -2.00

[[record]]
compound = "NCc1ccc(CNC(=O)[C@H](Cc2ccccc2)NC(=O)[C@@H](Cc2ccc(O)cc2)NC(=O)c2ccccc2)cc1 [Example 129]"
measurement_target = "Human plasma kallikrein (Homo sapiens (Human), UniProt P03952)"
quantity_name = "log10 of IC50"
assay_value = 1.00


Let us move to another entry and its log10 of IC50.
Entry under test: CCOc1ccc(C[C@@H](NC(=O)c2sccc2NC(C)=O)C(=O)N[C@@H](Cc2ccccc2)C(=O)NCc2ccc(CN)cc2)cc1 [Example 179] . Its log10 of IC50 was -1.66
